System: Candida albicans CCH 442
experiment: MIC by agar dilution method
Assay type: cell-based
assay_setup: CCH442; Table 6c, 3rd value column (head printed II); III Candida albicans CCH 442; agar dilution; read-out: MIC II
Please provide measured MIC for the entries that follow.
Give bare numbers, in µg/mL.

Please review the entries below; each comes with its answer.
# get_value(readout= MIC, system= Candida albicans CCH 442) for `CCCCC/C=C/C=C/[C@@H](O)C/C=C/C=C/C(=O)O[C@@H]1[C@@H](O)[C@H](c2c(O)cc(O)cc2CO)O[C@H](CO)[C@H]1O[C@@H]1O[C@H](COC(=O)c2ccc(Oc3ccccc3)cc2)[C@H](O)[C@H](O)[C@H]1O[C@@H]1O[C@H](CO)[C@H](O)[C@H](O)[C@H]1O`
3.12

Quick check: MIC on Candida albicans CCH 442, item `CCCCC/C=C/C=C/[C@@H](O)C/C=C/C=C/C(=O)O[C@@H]1[C@@H](O)[C@H](c2c(O)cc(O)cc2CO)O[C@H](CO)[C@H]1O[C@@H]1O[C@H](COC(=O)c2ccc(-c3ccc(-c4ccccc4)cc3)cc2)[C@H](O)[C@H](O)[C@H]1O[C@@H]1O[C@H](CO)[C@H](O)[C@H](O)[C@H]1O` ?
0.78

Which MIC is reported with Candida albicans CCH 442 for this entry: CCCCC/C=C/C=C/C(O)C/C=C/C=C/C(=O)O[C@@H]1[C@@H](O)[C@H](c2c(O)cc(O)cc2CO)O[C@H](CO)[C@H]1O[C@@H]1O[C@H](CO)[C@H](O)[C@H](O)[C@H]1O[C@@H]1O[C@H](CO)[C@H](O)[C@H](O)[C@H]1O (stereo partly shown) ?
25

Any idea what MIC came out for `CCCCC/C=C/C=C/[C@@H](O)C/C=C/C=C/C(=O)O[C@@H]1[C@@H](O)[C@H](c2c(O)cc(O)cc2CO)O[C@H](CO)[C@H]1O[C@@H]1O[C@H](COC(=O)c2ccc(-c3ccc(OCCCCCCCC)cc3)cc2)[C@H](O)[C@H](O)[C@H]1O[C@@H]1O[C@H](CO)[C@H](O)[C@H](O)[C@H]1O` on Candida albicans CCH 442?
25

State its MIC on Candida albicans CCH 442: `C=CCOc1ccc2cc(C(=O)OC[C@H]3O[C@@H](O[C@H]4[C@H](OC(=O)/C=C/C=C/C[C@H](O)/C=C/C=C/CCCCC)[C@@H](O)[C@H](c5c(O)cc(O)cc5CO)O[C@@H]4CO)[C@H](O[C@@H]4O[C@H](CO)[C@H](O)[C@H](O)[C@H]4O)[C@@H](O)[C@H]3O)ccc2c1`
6.25

Provide MIC for all items below, preserving their order.
1. CCCCC/C=C/C=C/[C@@H](O)C/C=C/C=C/C(=O)O[C@@H]1[C@@H](O)[C@H](c2c(O)cc(O)cc2CO)O[C@H](CO)[C@H]1O[C@@H]1O[C@H](COC(=O)CCC)[C@H](O)[C@H](O)[C@H]1O[C@@H]1O[C@H](CO)[C@H](O)[C@H](O)[C@H]1O
2. CCCCC/C=C/C=C/[C@@H](O)C/C=C/C=C/C(=O)O[C@@H]1[C@@H](O)[C@H](c2c(O)cc(O)cc2CO)O[C@H](CO)[C@H]1O[C@@H]1O[C@H](COC(=O)c2ccc(-c3ccccc3)cc2)[C@H](O)[C@H](O)[C@H]1O[C@@H]1O[C@H](CO)[C@H](O)[C@H](O)[C@H]1O
3. CCCCC/C=C/C=C/[C@@H](O)C/C=C/C=C/C(=O)O[C@@H]1[C@@H](O)[C@H](c2c(O)cc(O)cc2CO)O[C@H](CO)[C@H]1O[C@@H]1O[C@H](COC(=O)c2ccc(-c3ccc4c(c3)OCO4)cc2)[C@H](O)[C@H](O)[C@H]1O[C@@H]1O[C@H](CO)[C@H](O)[C@H](O)[C@H]1O
4. CCCCC/C=C/C=C/[C@@H](O)C/C=C/C=C/C(=O)O[C@@H]1[C@@H](O)[C@H](c2c(O)cc(O)cc2CO)O[C@H](CO)[C@H]1O[C@@H]1O[C@H](COC(=O)c2cccc(-c3ccc(OC)cc3)c2)[C@H](O)[C@H](O)[C@H]1O[C@@H]1O[C@H](CO)[C@H](O)[C@H](O)[C@H]1O

[25, 0.78, 1.56, 1.56]

Would you mind giving MIC for every molecule in the list below?
1. CCCCC/C=C/C=C/[C@@H](O)C/C=C/C=C/C(=O)O[C@@H]1[C@@H](O)[C@H](c2c(O)cc(O)cc2CO)O[C@H](CO)[C@H]1O[C@@H]1O[C@H](COC(=O)c2ccc3ccc4ccccc4c3c2)[C@H](O)[C@H](O)[C@H]1O[C@@H]1O[C@H](CO)[C@H](O)[C@H](O)[C@H]1O
2. CCCCC/C=C/C=C/[C@@H](O)C/C=C/C=C/C(=O)O[C@@H]1[C@@H](O)[C@H](c2c(O)cc(O)cc2CO)O[C@H](CO)[C@H]1O[C@@H]1O[C@H](COC(=O)c2ccc(-c3ccc(OC)cc3)cc2)[C@H](O)[C@H](O)[C@H]1O[C@@H]1O[C@H](CO)[C@H](O)[C@H](O)[C@H]1O
3. CCCCC/C=C/C=C/[C@@H](O)C/C=C/C=C/C(=O)O[C@@H]1[C@@H](O)[C@H](c2c(O)cc(O)cc2CO)O[C@H](CO)[C@H]1O[C@@H]1O[C@H](COC(=O)c2ccccc2)[C@H](O)[C@H](O)[C@H]1O[C@@H]1O[C@H](CO)[C@H](O)[C@H](O)[C@H]1O
4. CCCCC/C=C/C=C/[C@@H](O)C/C=C/C=C/C(=O)O[C@@H]1[C@@H](O)[C@H](c2c(O)cc(O)cc2CO)O[C@H](CO)[C@H]1O[C@@H]1O[C@H](COC(=O)c2ccc(-c3ccc(OCc4ccccc4)cc3)cc2)[C@H](O)[C@H](O)[C@H]1O[C@@H]1O[C@H](CO)[C@H](O)[C@H](O)[C@H]1O

1. 1.56
2. 0.78
3. 12.5
4. 3.12

Source listed as patent US5773421A.
